# Test system: C. elegans
# experiment: microbe, parasite or virus in culture
# conditionContext: Caenorhabditis elegans, 0 h, read-out: Percentage of motility inhibition 0 h, Table S2, C. elegans SS assay, 110 μM, 0 h, averages of 4 data points
Counter-ions that a name gives are not always drawn.
Label rule, in plain words: inhibition at 110 µM of 4% and up is criterion met, under 4% is criterion not met.

[[record]]
compound = "COc1ccc(NS(=O)(=O)c2ccc(N)cc2)nn1"
targetentity = "C. elegans"
classassignment = "criterion not met"

[[record]]
compound = "C[C@@H]1[C@H](O)[C@@H](C)/C=C/C=C/C=C/C=C/C=C/C=C/C=C/[C@H](O[C@@H]2O[C@H](C)[C@@H](O)[C@H](N)[C@@H]2O)C[C@@H]2O[C@](O)(C[C@@H](O)C[C@@H](O)[C@H](O)CC[C@@H](O)C[C@@H](O)CC(=O)O[C@H]1C)C[C@H](O)[C@H]2C(=O)O"
targetentity = "C. elegans"
classassignment = "criterion not met"

[[record]]
compound = "CCN(CCO)CCCC(C)Nc1ccnc2cc(Cl)ccc12 (centres unmarked) [Hydroxychloroquine sulfate]"
targetentity = "C. elegans"
classassignment = "criterion met"

[[record]]
compound = "C=CC1=C(C)c2cc3[nH]c(cc4nc(cc5[nH]c(cc1n2)c(C)c5CCC(=O)O)C(CCC(=O)O)=C4C)c(C)c3C=C"
targetentity = "C. elegans"
classassignment = "criterion not met"

[[record]]
compound = "Cc1cn([C@H]2C[C@H](N=[N+]=[N-])[C@@H](CO)O2)c(=O)[nH]c1=O"
targetentity = "C. elegans"
classassignment = "criterion met"

[[record]]
compound = "CC(C)C1=Cc2ccc3c(c2C(=O)C1=O)CCCC3(C)C"
targetentity = "C. elegans"
classassignment = "criterion not met"

[[record]]
compound = "COC(=O)C1=CO[C@@H](O[C@@H]2O[C@H](CO)[C@@H](O)[C@H](O)[C@H]2O)[C@H]2[C@@H]1[C@H](O)C[C@]2(C)O [Shanzhiside methyl ester]"
targetentity = "C. elegans"
classassignment = "criterion met"

[[record]]
compound = "CC1=C(C(=O)O)N2C(=O)[C@@H](NC(=O)[C@H](N)c3ccccc3)[C@H]2SC1"
targetentity = "C. elegans"
classassignment = "criterion met"

[[record]]
compound = "Oc1c(I)cc(I)c2cccnc12 [Diiodohydroxyquinoline]"
targetentity = "C. elegans"
classassignment = "criterion met"

[[record]]
compound = "COC[C@H]1C[C@@H](c2nc(-c3ccc4c(c3)COc3cc5c(ccc6nc([C@@H]7CC[C@H](C)N7C(=O)[C@@H](NC(=O)OC)C(C)C)[nH]c65)cc3-4)c[nH]2)N(C(=O)[C@H](NC(=O)OC)c2ccccc2)C1"
targetentity = "C. elegans"
classassignment = "criterion met"

[[record]]
compound = "CC(C)C1=C[C@H]2[C@@H](CC[C@]2(C)O)[C@](C)(O)CC1 [Alismoxide]"
targetentity = "C. elegans"
classassignment = "criterion not met"

[[record]]
compound = "O=c1cc(-c2ccccc2)oc2cc(O)ccc12 [7‐Hydroxyflavone]"
targetentity = "C. elegans"
classassignment = "criterion not met"

[[record]]
compound = "COc1cc2c3c(cc4ccccc4c3c1OC)N(C)CC2 [Dehydronuciferine]"
targetentity = "C. elegans"
classassignment = "criterion met"


====

# Test system: C. elegans
# experiment: microbe, parasite or virus in culture
# conditionContext: Caenorhabditis elegans, 24 h, read-out: Percentage of motility inhibition 24 h, Table S2, C. elegans SS assay, 110 μM, 24 h, averages of 4 data points
# reported inhibition at 110 µM; entries follow
measuredMetric: inhibition at 110 µM (%)

[[record]]
compound = "CC(C)(O)/C=C/C(=O)[C@](C)(O)[C@H]1[C@H](O)C[C@@]2(C)[C@@H]3CC=C4[C@@H](C=C(O)C(=O)C4(C)C)[C@]3(C)C(=O)C[C@]12C [Cucurbitacin I]"
measuredmetric = "inhibition at 110 µM"
endpointunit = "%"
resultnumber = 23

[[record]]
compound = "O=c1c(O[C@@H]2O[C@H](CO)[C@H](O)[C@H](O)[C@H]2O)c(-c2ccc(O)c(O)c2)oc2cc(O)cc(O)c12 [Hyperoside]"
measuredmetric = "inhibition at 110 µM"
endpointunit = "%"
resultnumber = 11

[[record]]
compound = "C[C@@H]1O[C@@H](O[C@H]2[C@H](O[C@H]3CC[C@]4(C)[C@H]5CC=C6[C@@H]7CC(C)(C)CC[C@]7(C(=O)O)CC[C@@]6(C)[C@]5(C)CC[C@H]4C3(C)C)OC[C@H](O[C@@H]3O[C@H](CO)[C@@H](O)[C@H](O)[C@H]3O)[C@@H]2O)[C@H](O)[C@H](O)[C@H]1O [Hederacolchiside A1]"
measuredmetric = "inhibition at 110 µM"
endpointunit = "%"
resultnumber = 0

[[record]]
compound = "C=C1CC/C=C(\\C)CC[C@@H]2[C@@H]1CC2(C)C [β-Caryophyllene]"
measuredmetric = "inhibition at 110 µM"
endpointunit = "%"
resultnumber = 27

[[record]]
compound = "C[C@H]1O[C@@H](O[C@H]2CC[C@@]3(C)[C@@H](CC[C@]4(C)[C@@H]3C=C[C@]35OC[C@@]6(CCC(C)(C)C[C@H]63)[C@@H](O)C[C@]54C)[C@]2(C)CO)[C@H](O)[C@@H](O[C@@H]2O[C@H](CO)[C@@H](O)[C@H](O)[C@H]2O)[C@H]1O [Saikosaponin A]"
measuredmetric = "inhibition at 110 µM"
endpointunit = "%"
resultnumber = 4

[[record]]
compound = "COc1ccc2[nH]cc(CCNC(C)=O)c2c1 [Melatonin]"
measuredmetric = "inhibition at 110 µM"
endpointunit = "%"
resultnumber = 24

